- Tested on: ORYSP = Oryza sativa (transplanted paddy rice)
- experiment: Greenhouse in-water application (large pots), crop injury
- Type: in vivo
- conditionDetails: 1120 g ae/ha in-water
Entry flag: met if Percent (%) Visual Injury Ratings - 31 DAA, ORYSP reaches 70%; not met if it does not.

// known answers, use as guide
- compound: "O=C(O)COc1ccc(Cl)cc1Cl [2,4-D DMA (Weedar ® 64)]"
  labelValue: "not met"
- compound: "CCCCCCC(C)OC(=O)COc1nc(F)c(Cl)c(N)c1Cl (centres unmarked) [Fluroxypyr-meptyl (Starane ® Ultra)]"
  labelValue: "met"

Now consider the entry below.
Request: Determine whether this compound has Percent (%) Visual Injury Ratings - 31 DAA, ORYSP no lower than 70%: O=C(O)c1nc(Cl)ccc1Cl [Clopyralid olamine (Stinger ®)]
Result: not met

====

- Test system: ORYSP = Oryza sativa (transplanted paddy rice)
- experiment: Greenhouse in-water application (large pots), crop injury
- Assay type: in vivo
- conditionDetails: 560 g ae/ha in-water
assayMetric: Percent (%) Visual Injury Ratings - 31 DAA, ORYSP
Returns: string containing the numeric result and its unit.

# example entries with known answers
- compound: "O=C(O)COc1nc(Cl)c(Cl)cc1Cl"
  endpointResult: "5%"
- compound: "O=C(O)c1nc(Cl)ccc1Cl [Clopyralid olamine (Stinger ®)]"
  endpointResult: "0%"
- compound: "O=C(O)COc1ccc(Cl)cc1Cl"
  endpointResult: "3%"
- compound: "CCCCCCC(C)OC(=O)COc1nc(F)c(Cl)c(N)c1Cl (centres unmarked) [Fluroxypyr-meptyl (Starane ® Ultra)]"
  endpointResult: "28%"

Now look at this one.
Request: Reported Percent (%) Visual Injury Ratings - 31 DAA, ORYSP, compound CCCCOCCOC(=O)COc1nc(Cl)c(Cl)cc1Cl : ____
Result: 22%

====

Each entry below lists one item and its recorded pest or weed control at 280 g/ha value.
- Tested on: CYPDI = Cyperus difformis (small-flower flatsedge)
- experiment: Greenhouse in-water herbicidal activity (large pots)
- Assay type: in vivo
- conditionDetails: Cyperus difformis, 744 h, read-out: Percent (%) Visual Injury Ratings - 31 DAA, CYPDI
Report only the number, with the unit % understood.

# example entries with known answers
- compound: "O=C(O)c1nc(Cl)ccc1Cl [Clopyralid olamine (Stinger ®)]"
  pest or weed control at 280 g/ha / %: 7
- compound: "O=C(O)COc1nc(Cl)c(Cl)cc1Cl"
  pest or weed control at 280 g/ha / %: 97
- compound: "CCCCCCC(C)OC(=O)COc1nc(F)c(Cl)c(N)c1Cl (stereo not shown) [Fluroxypyr-meptyl (Starane ® Ultra)]"
  pest or weed control at 280 g/ha / %: 100

Now look at this one.
Request: Notebook: pull reported pest or weed control at 280 g/ha for CYPDI = Cyperus difformis (small-flower flatsedge), entry O=C(O)COc1ccc(Cl)cc1Cl
Result: 100

====

Each entry below lists one item and its recorded Percent (%) Visual Injury Ratings - 31 DAA, ORYSP value.
- Tested on: ORYSP = Oryza sativa (transplanted paddy rice)
- experiment: Greenhouse in-water application (large pots), crop injury
- Assay type: in vivo
- conditionDetails: 280 g ae/ha in-water
- Experimental: Weed seeds or nutlets of the desired test plant species were planted in puddled soil (mud) prepared by mixing shredded topsoil and deionized (DI) water in a 1:1 ratio in a standard cement mixer. […] The container is a high-density polyethylene (HDPE) round container (4.163 L (1.1 gallon), 15 cm high×20.55 cm diameter; for treatment purposes, the surface area is calculated as 331 cm^2 with 1 hectare equivalent to 10^8 cm^2). […]
Report only the number, with the unit % understood.

- compound: "O=C(O)c1nc(Cl)ccc1Cl [Clopyralid olamine (Stinger ®)]"
  measuredTarget: "ORYSP = Oryza sativa (transplanted paddy rice)"
  valueUnits: "%"
  endpointResult: 0
- compound: "CCCCOCCOC(=O)COc1nc(Cl)c(Cl)cc1Cl"
  measuredTarget: "ORYSP = Oryza sativa (transplanted paddy rice)"
  valueUnits: "%"
  endpointResult: 3
- compound: "O=C(O)COc1ccc(Cl)cc1Cl"
  measuredTarget: "ORYSP = Oryza sativa (transplanted paddy rice)"
  valueUnits: "%"
  endpointResult: 0
- compound: "CCCCCCC(C)OC(=O)COc1nc(F)c(Cl)c(N)c1Cl (centres unmarked) [Fluroxypyr-meptyl (Starane ® Ultra)]"
  measuredTarget: "ORYSP = Oryza sativa (transplanted paddy rice)"
  valueUnits: "%"
  endpointResult: 5

Now look at this one.
Request: Reported Percent (%) Visual Injury Ratings - 31 DAA, ORYSP, compound O=C(O)COc1nc(Cl)c(Cl)cc1Cl : ____
Result: 1
